Recorded values, source ChEMBL document CHEMBL4828758.

# target_system: Protein smoothened (Mus musculus) (UniProt P56726)
# test_protocol: Agonist activity at SMO in mouse NIH3T3 cells assessed as fluorescent intensity of ciliary SMO incubated for 12 hrs by fluorescence method
# Assay type: functional, cell-based
# applied_conditions: filed as agonist
The source made the active and inactive calls. The calls are words filed in the database; no cut-off is given here.

>  <compound>
CN[C@H]1CC[C@H](N(Cc2cccc(-c3ccncc3)c2)C(=O)c2sc3ccccc3c2Cl)CC1

>  <Activity>
Active

$$$$
>  <compound>
CN[C@H]1CC[C@H](N(Cc2cccc(-c3ccnc(OCCOCCOCCOCCn4cc(COCCOCCCCCC[C@@H](C)C5CC[C@H]6[C@@H]7CC=C8C[C@@H](O)CC[C@]8(C)[C@H]7CC[C@]56C)nn4)c3)c2)C(=O)c2sc3ccccc3c2Cl)CC1 (stereo partly drawn)

>  <Activity>
Active

$$$$
>  <compound>
CN[C@H]1CC[C@H](N(Cc2cccc(-c3ccnc(OCCOCCOCCOCCn4cc(COCCOCCC#CCCC(C)(O)C5CC[C@H]6[C@@H]7CC=C8C[C@@H](O)CC[C@]8(C)[C@H]7CC[C@]56C)nn4)c3)c2)C(=O)c2sc3ccccc3c2Cl)CC1 (stereo partly drawn)

>  <Activity>
Active

$$$$

---

# target_system: UniProt:P56726
# test_protocol: Agonist activity at SMO in mouse NIH3T3 cells incubated for 2 hrs by Bright-Glo luciferase assay
pEC50: −log10 of the molar value.
Below, each entry is listed alongside its reported pEC50.

>  <molecule>
CN[C@H]1CC[C@H](N(Cc2cccc(-c3ccnc(OCCOCCOCCOCCn4cc(COCCOCCOCCCCCC[C@](C)(O)C5CC[C@H]6[C@@H]7CC=C8C[C@@H](O)CC[C@]8(C)[C@H]7CC[C@]56C)nn4)c3)c2)C(=O)c2sc3ccccc3c2Cl)CC1 (stereo partly drawn)

>  <target_system>
UniProt:P56726

>  <pEC50>
8.10

$$$$
>  <molecule>
CC(O)(CCCCCCO)C1CC[C@H]2[C@@H]3CC=C4C[C@@H](O)CC[C@]4(C)[C@H]3CC[C@]12C (stereo partly drawn)

>  <target_system>
UniProt:P56726

>  <pEC50>
< 4.00

$$$$

Moving on to the next molecule.
## Input pEC50 of CC(O)(CCCCCCOCCOCc1cn(CCOCCOCCOCCO)nn1)C1CC[C@H]2[C@@H]3CC=C4C[C@@H](O)CC[C@]4(C)[C@H]3CC[C@]12C (stereo partly drawn) on UniProt:P56726?
## Output < 4.00

---

# target_system: Protein smoothened (Mus musculus, UniProt P56726)
# Sequence (P56726 whole entry): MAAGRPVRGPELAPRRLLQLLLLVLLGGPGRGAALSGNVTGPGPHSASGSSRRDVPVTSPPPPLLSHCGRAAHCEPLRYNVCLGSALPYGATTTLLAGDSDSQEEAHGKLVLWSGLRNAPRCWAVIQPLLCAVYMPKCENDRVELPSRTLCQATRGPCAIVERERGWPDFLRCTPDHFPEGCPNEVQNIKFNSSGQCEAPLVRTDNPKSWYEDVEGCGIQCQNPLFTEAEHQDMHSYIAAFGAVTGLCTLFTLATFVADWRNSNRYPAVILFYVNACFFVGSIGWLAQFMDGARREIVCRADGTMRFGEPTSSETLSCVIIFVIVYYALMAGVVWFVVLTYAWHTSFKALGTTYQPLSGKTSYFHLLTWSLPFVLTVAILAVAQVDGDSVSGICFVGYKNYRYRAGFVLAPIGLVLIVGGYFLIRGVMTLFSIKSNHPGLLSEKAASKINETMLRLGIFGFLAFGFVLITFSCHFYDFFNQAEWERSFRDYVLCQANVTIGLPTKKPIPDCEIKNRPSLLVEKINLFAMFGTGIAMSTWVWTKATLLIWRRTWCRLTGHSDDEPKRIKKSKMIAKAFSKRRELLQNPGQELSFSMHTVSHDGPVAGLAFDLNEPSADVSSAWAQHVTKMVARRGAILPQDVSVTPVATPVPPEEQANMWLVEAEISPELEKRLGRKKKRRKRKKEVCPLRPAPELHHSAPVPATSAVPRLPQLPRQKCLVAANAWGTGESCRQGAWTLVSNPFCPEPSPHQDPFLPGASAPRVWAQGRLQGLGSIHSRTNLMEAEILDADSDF
# test_protocol: Agonist activity at SMO in mouse NIH3T3 cells incubated for 2 hrs by Bright-Glo luciferase assay
outcome_measure: EC50 (nM)

>  <compound>
CN[C@H]1CC[C@H](N(Cc2cccc(-c3ccnc(OCCOCCOCCOCCOCCOCCn4cc(COCCOCCOCCOCCOCCOCCOCCCCCC[C@@H](C)C5CC[C@H]6[C@@H]7CC=C8C[C@@H](O)CC[C@]8(C)[C@H]7CC[C@]56C)nn4)c3)c2)C(=O)c2sc3ccccc3c2Cl)CC1 (stereo partly specified)

>  <outcome_measure>
EC50

>  <readout_value>
200

$$$$
>  <compound>
CN[C@H]1CC[C@H](N(Cc2cccc(-c3ccnc(OCCOCCOCCn4cc(COCCCCCCC(C)(O)C5CC[C@H]6[C@@H]7CC=C8C[C@@H](O)CC[C@]8(C)[C@H]7CC[C@]56C)nn4)c3)c2)C(=O)c2sc3ccccc3c2Cl)CC1 (stereo partly specified)

>  <outcome_measure>
EC50

>  <readout_value>
8

$$$$
>  <compound>
CN[C@H]1CC[C@H](N(Cc2cccc(-c3ccnc(OCCOCCOCCOCCOCCOCCn4cc(COCCOCCOCCOCCOCCOCCOCCOCCCCCC[C@@H](C)C5CC[C@H]6[C@@H]7CC=C8C[C@@H](O)CC[C@]8(C)[C@H]7CC[C@]56C)nn4)c3)c2)C(=O)c2sc3ccccc3c2Cl)CC1 (stereo partly specified)

>  <outcome_measure>
EC50

>  <readout_value>
200

$$$$
>  <compound>
CN[C@H]1CC[C@H](N(Cc2cccc(-c3ccnc(OCCOCCOCCOCCn4cc(COCCOCCOCCOCCOCCOCCOCCCCCC[C@@H](C)C5CC[C@H]6[C@@H]7CC=C8C[C@@H](O)CC[C@]8(C)[C@H]7CC[C@]56C)nn4)c3)c2)C(=O)c2sc3ccccc3c2Cl)CC1 (stereo partly specified)

>  <outcome_measure>
EC50

>  <readout_value>
200

$$$$

[A] CN[C@H]1CC[C@H](N(Cc2cccc(-c3ccnc(OCCOCCOCCOCCn4cc(COCCCCCC[C@](C)(O)C5CC[C@H]6[C@@H]7CC=C8C[C@@H](O)CC[C@]8(C)[C@H]7CC[C@]56C)nn4)c3)c2)C(=O)c2sc3ccccc3c2Cl)CC1 (stereo partly specified)
[B] CN[C@H]1CC[C@H](N(Cc2cccc(-c3ccnc(OCCOCCOCCOCCn4cc(COCCOCCCCCC[C@@H](C)C5CC[C@H]6[C@@H]7CC=C8C[C@@H](O)CC[C@]8(C)[C@H]7CC[C@]56C)nn4)c3)c2)C(=O)c2sc3ccccc3c2Cl)CC1 (stereo partly specified)
## Input Sort A and B by EC50 descending and give the first. Mark your selection by writing its label.
## Output B
(B: 200 nM, A: 8 nM)
